Listed compounds paired with reported viability, T/C
Tested on: 947758-054-R-J2-PDC spheroid growth, percent test/control
Method description: Anticancer human tumor 947758-054-R-J2-PDC patient-derived colon adenocarcinoma cell line growth inhibition [CLK]
Measurement context: second compound 0.0316 µM; first compound 0.316 µM; stronger effect = lower value; spheroids with HUVEC and MSC
Experimental readout: viability, T/C (%)

1. O=C(c1cc(Cc2n[nH]c(=O)c3ccccc23)ccc1F)N1CCN(C(=O)C2CC2)CC1 + CN1CCN(c2cc(C(=O)Nc3cc4cc(-c5cnn(C)c5)ccc4cn3)ccn2)CC1	127
2. COc1c(OCCCN2CCOCC2)ccc2c3n(c(=NC(=O)c4cnc(N)nc4)nc12)CCN3 + CN1CCN(c2cc(C(=O)Nc3cc4cc(-c5cnn(C)c5)ccc4cn3)ccn2)CC1	28.7
3. Nc1ccn(C2OC(CO)C(O)C2(F)F)c(=O)n1 (centres undefined) + CNC(=O)c1ccc(Nc2nc(OC3CCCC3)c3c(-c4ccc5nc(C)oc5c4)c[nH]c3n2)c(OC)c1	10.4
4. CCCS(=O)(=O)Nc1ccc(F)c(C(=O)c2c[nH]c3ncc(-c4ccc(Cl)cc4)cc23)c1F + CNC(=O)c1ccc(Nc2nc(OC3CCCC3)c3c(-c4ccc5nc(C)oc5c4)c[nH]c3n2)c(OC)c1	31.6

###

System: 947758-054-R-J2-PDC spheroid growth, percent test/control
Method description: Anticancer human tumor 947758-054-R-J2-PDC cell line growth inhibition [CLK];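 further: spheroids exposed to compounds for one week before readout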;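 on viability, T/C: 100% = DMSO vehicle control wells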
Measurement context: second compound 10 µM; first compound 0.0316 µM; stronger effect = lower value; spheroids with HUVEC and MSC
Source text: A high-throughput screen of multi-cell type tumor spheroids was designed to identify active combinations of […] and targeted small molecules. Complex spheroids include a stromal component modeled by human endothelial cells (HUVEC) and fibroblasts modeled by human mesenchymal stem cells (MSCs). […] Compounds. […] If the clinical Cmax for an agent had not been determined, the highest concentration tested was 10 microM. […]
Listed compounds paired with reported viability, T/C
Experimental readout: viability, T/C (%)

1) O=C(c1cc(Cc2n[nH]c(=O)c3ccccc23)ccc1F)N1CCN(C(=O)C2CC2)CC1 + CNC(=O)c1ccc(Nc2nc(OC3CCCC3)c3c(-c4ccc5nc(C)oc5c4)c[nH]c3n2)c(OC)c1	47.9
2) COc1c(OCCCN2CCOCC2)ccc2c3n(c(=NC(=O)c4cnc(N)nc4)nc12)CCN3 + CN1CCN(c2cc(C(=O)Nc3cc4cc(-c5cnn(C)c5)ccc4cn3)ccn2)CC1	0.32
3) Nc1ccccc1NC(=O)c1ccc(CNC(=O)OCc2cccnc2)cc1 + CNC(=O)c1ccc(Nc2nc(OC3CCCC3)c3c(-c4ccc5nc(C)oc5c4)c[nH]c3n2)c(OC)c1	38.8
4) C=CC(=O)N1CCN(c2nc(=O)n(-c3c(C)ccnc3C(C)C)c3nc(-c4c(O)cccc4F)c(F)cc23)C(C)C1 (stereo not given) + CN1CCN(c2cc(C(=O)Nc3cc4cc(-c5cnn(C)c5)ccc4cn3)ccn2)CC1	0.46
5) CC(=O)O[C@H]1C(=O)[C@@]2(C)[C@H]([C@H](OC(=O)c3ccccc3)[C@]3(O)C[C@H](OC(=O)[C@H](O)[C@@H](NC(=O)c4ccccc4)c4ccccc4)C(C)=C1C3(C)C)[C@]1(OC(C)=O)CO[C@@H]1C[C@@H]2O + CN1CCN(c2cc(C(=O)Nc3cc4cc(-c5cnn(C)c5)ccc4cn3)ccn2)CC1	1.41

###

Test system: 947758-054-R-J2-PDC spheroid growth, percent test/control
Method description: Anticancer human tumor 947758-054-R-J2-PDC cell line growth inhibition [CLK]; active means viability on the fitted dose curve at most 10% of control; inactive means the rest;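 further: spheroids exposed to compounds for one week before readout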
Measurement context: second compound 10 µM; first compound 0.3 µM; spheroids with HUVEC and MSC
Outcomes: active, inactive

1) CC(C)CC(NC(=O)C(Cc1ccccc1)NC(=O)c1cnccn1)B(O)O (stereo unspecified) + CNC(=O)c1ccc(Nc2nc(OC3CCCC3)c3c(-c4ccc5nc(C)oc5c4)c[nH]c3n2)c(OC)c1	active
2) NC(=O)C(=Cn1cnc(-c2cc(C(F)(F)F)cc(C(F)(F)F)c2)n1)c1cncnc1 + CN1CCN(c2cc(C(=O)Nc3cc4cc(-c5cnn(C)c5)ccc4cn3)ccn2)CC1	active
3) NC(=O)C(=Cn1cnc(-c2cc(C(F)(F)F)cc(C(F)(F)F)c2)n1)c1cncnc1 + CNC(=O)c1ccc(Nc2nc(OC3CCCC3)c3c(-c4ccc5nc(C)oc5c4)c[nH]c3n2)c(OC)c1	active
4) C=CC(=O)Nc1cc(Nc2nccc(-c3cn(C)c4ccccc34)n2)c(OC)cc1N(C)CCN(C)C + CNC(=O)c1ccc(Nc2nc(OC3CCCC3)c3c(-c4ccc5nc(C)oc5c4)c[nH]c3n2)c(OC)c1	inactive
5) CC(C)CC(NC(=O)C(Cc1ccccc1)NC(=O)c1cnccn1)B(O)O (stereo unspecified) + CN1CCN(c2cc(C(=O)Nc3cc4cc(-c5cnn(C)c5)ccc4cn3)ccn2)CC1	active
6) C=CC(=O)Nc1cc(Nc2nccc(-c3cn(C)c4ccccc34)n2)c(OC)cc1N(C)CCN(C)C + CN1CCN(c2cc(C(=O)Nc3cc4cc(-c5cnn(C)c5)ccc4cn3)ccn2)CC1	active

###

Tested on: 947758-054-R-J2-PDC spheroid growth, percent test/control
Method description: Anticancer human tumor 947758-054-R-J2-PDC cell line growth inhibition [CLK];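 further: spheroids exposed to compounds for one week before readout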
Measurement context: curve of first compound; second compound 1 µM; spheroids with HUVEC and MSC
pIC50: −log10 of the molar value.
Experimental readout: pIC50

1. CCCS(=O)(=O)Nc1ccc(F)c(C(=O)c2c[nH]c3ncc(-c4ccc(Cl)cc4)cc23)c1F + CNC(=O)c1ccc(Nc2nc(OC3CCCC3)c3c(-c4ccc5nc(C)oc5c4)c[nH]c3n2)c(OC)c1	> 7.50
2. CCN1CCN(Cc2ccc(Nc3ncc(F)c(-c4cc(F)c5nc(C)n(C(C)C)c5c4)n3)nc2)CC1 + CNC(=O)c1ccc(Nc2nc(OC3CCCC3)c3c(-c4ccc5nc(C)oc5c4)c[nH]c3n2)c(OC)c1	8.18
3. O=C(c1cc(Cc2n[nH]c(=O)c3ccccc23)ccc1F)N1CCN(C(=O)C2CC2)CC1 + CN1CCN(c2cc(C(=O)Nc3cc4cc(-c5cnn(C)c5)ccc4cn3)ccn2)CC1	> 7.50
4. CC(CO)NC(=O)c1cc(-c2ccc(Cl)cc2)nn(-c2cnn(C)c2)c1=O (stereo not given) + CNC(=O)c1ccc(Nc2nc(OC3CCCC3)c3c(-c4ccc5nc(C)oc5c4)c[nH]c3n2)c(OC)c1	< 5.00
5. CC(Nc1ccc2c(c1)OCCn1cc(N3C(=O)OCC3C(F)F)nc1-2)C(N)=O (stereo not given) + CN1CCN(c2cc(C(=O)Nc3cc4cc(-c5cnn(C)c5)ccc4cn3)ccn2)CC1	> 7.50
6. COc1c(OCCCN2CCOCC2)ccc2c3n(c(=NC(=O)c4cnc(N)nc4)nc12)CCN3 + CN1CCN(c2cc(C(=O)Nc3cc4cc(-c5cnn(C)c5)ccc4cn3)ccn2)CC1	> 8.50
7. CC(=O)O[C@H]1C(=O)[C@@]2(C)[C@H]([C@H](OC(=O)c3ccccc3)[C@]3(O)C[C@H](OC(=O)[C@H](O)[C@@H](NC(=O)c4ccccc4)c4ccccc4)C(C)=C1C3(C)C)[C@]1(OC(C)=O)CO[C@@H]1C[C@@H]2O + CN1CCN(c2cc(C(=O)Nc3cc4cc(-c5cnn(C)c5)ccc4cn3)ccn2)CC1	> 7.50
8. CC(CO)NC(=O)c1cc(-c2ccc(Cl)cc2)nn(-c2cnn(C)c2)c1=O (stereo not given) + CN1CCN(c2cc(C(=O)Nc3cc4cc(-c5cnn(C)c5)ccc4cn3)ccn2)CC1	> 7.50
9. NC(=O)C(=Cn1cnc(-c2cc(C(F)(F)F)cc(C(F)(F)F)c2)n1)c1cncnc1 + CNC(=O)c1ccc(Nc2nc(OC3CCCC3)c3c(-c4ccc5nc(C)oc5c4)c[nH]c3n2)c(OC)c1	> 8.02
10. COc1cccc2c1C(=O)c1c(O)c3c(c(O)c1C2=O)CC(O)(C(=O)CO)CC3OC1CC(N)C(O)C(C)O1 (stereo not given) + CN1CCN(c2cc(C(=O)Nc3cc4cc(-c5cnn(C)c5)ccc4cn3)ccn2)CC1	> 7.50

###

Test system: 947758-054-R-J2-PDC spheroid growth, percent test/control
Method description: Anticancer human tumor 947758-054-R-J2-PDC cell line growth inhibition [CLK];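 further: spheroids exposed to compounds for one week before readout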;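 on viability, T/C: 100% = DMSO vehicle control wells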
Measurement context: second compound 10 µM; first compound 1 µM; stronger effect = lower value; spheroids with HUVEC and MSC
Lab note - cut at 0.4% for viability, T/C: satisfied if strictly below, not satisfied if not.

1. CC(=O)O[C@H]1C(=O)[C@@]2(C)[C@H]([C@H](OC(=O)c3ccccc3)[C@]3(O)C[C@H](OC(=O)[C@H](O)[C@@H](NC(=O)c4ccccc4)c4ccccc4)C(C)=C1C3(C)C)[C@]1(OC(C)=O)CO[C@@H]1C[C@@H]2O + CN1CCN(c2cc(C(=O)Nc3cc4cc(-c5cnn(C)c5)ccc4cn3)ccn2)CC1	satisfied
2. COc1c(OCCCN2CCOCC2)ccc2c3n(c(=NC(=O)c4cnc(N)nc4)nc12)CCN3 + CNC(=O)c1ccc(Nc2nc(OC3CCCC3)c3c(-c4ccc5nc(C)oc5c4)c[nH]c3n2)c(OC)c1	not satisfied
3. CCN1CCN(Cc2ccc(Nc3ncc(F)c(-c4cc(F)c5nc(C)n(C(C)C)c5c4)n3)nc2)CC1 + CNC(=O)c1ccc(Nc2nc(OC3CCCC3)c3c(-c4ccc5nc(C)oc5c4)c[nH]c3n2)c(OC)c1	not satisfied
4. O=c1[nH]cc(F)c(=O)[nH]1 + CNC(=O)c1ccc(Nc2nc(OC3CCCC3)c3c(-c4ccc5nc(C)oc5c4)c[nH]c3n2)c(OC)c1	not satisfied

// provenance: PubChem BioAssay AID2060605
